A collection of compounds and their measured residual activity
Molecular target: UniProt Q9NR20
Sequence (Q9NR20 whole entry, looked up): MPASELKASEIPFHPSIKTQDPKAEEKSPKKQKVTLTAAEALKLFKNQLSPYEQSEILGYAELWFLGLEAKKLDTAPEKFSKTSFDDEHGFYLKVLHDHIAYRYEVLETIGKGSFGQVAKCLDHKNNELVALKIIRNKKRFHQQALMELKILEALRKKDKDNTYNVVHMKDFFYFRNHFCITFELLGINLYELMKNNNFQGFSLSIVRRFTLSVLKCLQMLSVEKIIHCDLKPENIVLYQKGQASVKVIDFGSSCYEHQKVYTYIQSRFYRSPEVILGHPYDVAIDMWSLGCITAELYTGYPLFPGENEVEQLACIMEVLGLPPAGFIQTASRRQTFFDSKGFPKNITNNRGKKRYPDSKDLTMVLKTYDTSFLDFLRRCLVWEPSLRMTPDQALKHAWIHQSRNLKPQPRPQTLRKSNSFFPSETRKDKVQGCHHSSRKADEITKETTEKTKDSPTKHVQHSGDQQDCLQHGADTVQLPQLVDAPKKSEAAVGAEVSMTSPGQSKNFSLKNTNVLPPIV
Assay: radiometric filter-binding kinase assay, Kinase HotSpot
Details: compound 0.5 µM; ATP 10 µM
The answer is to be given in %; state only the numeric part.

chemical_structure=COc1ccc(COc2ccc(Cc3cnc(N)nc3N)cc2OC)cc1 reported_endpoint="residual activity" result=101

Tell me measured residual activity for CC(=O)c1ccc(N2CCOCC2)cc1O please.
95.6

Tell me measured residual activity for CCN(CC)C(=O)c1ccc(Nc2nc(OCC3CCCCC3)c3nc[nH]c3n2)cc1 please.
93.6

Tell me measured residual activity for CC[n+]1c(/C=C/N(C)c2ccccc2)n(-c2ccccc2)c2ccc(-c3nc4ccccc4s3)cc21 please.
107

Tell me measured residual activity for Cc1ccc(Nc2nccc(N(C)c3ccc4c(C)n(C)nc4c3)n2)cc1S(N)(=O)=O please.
106

Tell me measured residual activity for CCCC(=O)Oc1ccc2[nH]c(C(=O)c3cc4ccccc4[nH]3)cc2c1 please.
86

Tell me measured residual activity for CNc1cc2c(Nc3cccc(Br)c3)ncnc2cn1 please.
87.5

Tell me measured residual activity for CNC(=O)c1cc(Oc2ccc(NC(=O)Nc3ccc(Cl)c(C(F)(F)F)c3)cc2)ccn1 please.
105

Tell me measured residual activity for COc1cc2ncnc(Nc3cccc(Cl)c3)c2cc1OC please.
91.7

Tell me measured residual activity for O=C1Nc2ccc(Cl)cc2/C1=C/c1cc(Cl)c(O)c(Cl)c1 please.
95.7

Tell me measured residual activity for c1ccc(-c2n[nH]cc2-c2ccnc3ccccc23)nc1 please.
104

---

Target: UniProtKB Q9P0L2
Sequence (Q9P0L2 whole entry, looked up): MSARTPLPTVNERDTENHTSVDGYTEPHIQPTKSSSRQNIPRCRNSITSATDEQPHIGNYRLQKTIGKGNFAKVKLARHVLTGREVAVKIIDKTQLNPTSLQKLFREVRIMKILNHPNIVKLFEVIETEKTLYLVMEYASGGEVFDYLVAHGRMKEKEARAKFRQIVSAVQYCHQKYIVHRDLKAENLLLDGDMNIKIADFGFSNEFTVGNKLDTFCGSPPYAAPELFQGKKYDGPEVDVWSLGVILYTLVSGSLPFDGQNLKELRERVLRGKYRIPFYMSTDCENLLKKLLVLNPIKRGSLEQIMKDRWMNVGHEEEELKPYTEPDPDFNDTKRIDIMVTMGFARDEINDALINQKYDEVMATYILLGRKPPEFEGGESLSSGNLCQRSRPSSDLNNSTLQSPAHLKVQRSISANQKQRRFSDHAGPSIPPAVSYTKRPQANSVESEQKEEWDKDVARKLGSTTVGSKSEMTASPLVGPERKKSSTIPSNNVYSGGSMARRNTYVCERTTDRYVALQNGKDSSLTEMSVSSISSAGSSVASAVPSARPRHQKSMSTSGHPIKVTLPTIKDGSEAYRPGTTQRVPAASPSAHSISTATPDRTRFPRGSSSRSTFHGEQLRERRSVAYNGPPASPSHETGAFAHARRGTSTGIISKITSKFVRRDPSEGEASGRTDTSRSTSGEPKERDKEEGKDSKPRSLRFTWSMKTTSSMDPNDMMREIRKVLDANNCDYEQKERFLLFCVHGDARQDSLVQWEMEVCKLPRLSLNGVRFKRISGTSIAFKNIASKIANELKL
Test: radiometric filter-binding kinase assay, Kinase HotSpot
Details: compound 0.5 µM; ATP 10 µM
Reported Endpoint: residual activity (%)
The answer is to be given in %; state only the numeric part.

Below, each entry is followed by its recorded residual activity result.
chemical_structure=O=c1cc(N2CCOCC2)oc2c1ccc1ccccc12 result=99.5
chemical_structure=O=C1NC(=O)c2c1c1c3ccccc3n3c1c1c2c2ccccc2n1C1CCC3O1 result=10.4
chemical_structure=Cc1ccc(NC2=CC(=O)c3sc(C)nc3C2=O)cc1 result=89.6
chemical_structure=CC#CC(=O)Nc1cc2c(Nc3ccc(F)c(Cl)c3)ncnc2cn1 result=98.2
chemical_structure=CNC(=O)c1cc(Oc2ccc(NC(=O)Nc3ccc(Cl)c(C(F)(F)F)c3)cc2)ccn1 result=80.3
chemical_structure=c1ccc(-c2n[nH]cc2-c2ccnc3ccccc23)nc1 result=79.2
chemical_structure=O=C(Nc1cccc(Nc2nccc(Nc3cccc(C(F)(F)F)c3)n2)c1)C1CC1 result=104
chemical_structure=Nc1cccc(-c2cc3c(Oc4cccc(O)c4)ncnc3[nH]2)c1 result=83

Tell me measured residual activity for Oc1cccc(-c2nc(N3CCOCC3)c3oc4ncccc4c3n2)c1 please.
97.6

Tell me measured residual activity for CNc1cc2c(Nc3cccc(Br)c3)ncnc2cn1 please.
96.1

---

Target: CDK9 CCNT1 (human) (UniProt P50750+O60563)
Sequence (O60563 whole entry, looked up): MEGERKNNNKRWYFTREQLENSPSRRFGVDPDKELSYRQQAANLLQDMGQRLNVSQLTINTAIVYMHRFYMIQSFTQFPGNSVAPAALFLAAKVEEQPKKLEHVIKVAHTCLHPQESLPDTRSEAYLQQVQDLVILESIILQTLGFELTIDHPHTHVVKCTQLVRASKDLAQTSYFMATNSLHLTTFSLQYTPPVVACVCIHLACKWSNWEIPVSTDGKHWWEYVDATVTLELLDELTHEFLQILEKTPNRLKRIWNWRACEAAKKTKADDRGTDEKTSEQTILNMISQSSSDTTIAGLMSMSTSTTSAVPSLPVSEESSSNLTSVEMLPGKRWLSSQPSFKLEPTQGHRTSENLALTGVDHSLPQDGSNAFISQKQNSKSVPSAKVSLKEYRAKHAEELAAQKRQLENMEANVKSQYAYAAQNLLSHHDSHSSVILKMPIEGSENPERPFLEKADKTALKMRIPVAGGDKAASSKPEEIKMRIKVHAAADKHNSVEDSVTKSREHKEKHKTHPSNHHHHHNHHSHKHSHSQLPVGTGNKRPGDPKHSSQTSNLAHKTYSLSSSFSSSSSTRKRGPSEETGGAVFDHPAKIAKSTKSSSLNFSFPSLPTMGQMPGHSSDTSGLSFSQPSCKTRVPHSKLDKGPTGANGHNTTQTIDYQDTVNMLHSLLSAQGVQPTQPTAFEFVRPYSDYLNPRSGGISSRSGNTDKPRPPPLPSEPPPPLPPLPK
Sequence (P50750 whole entry, looked up): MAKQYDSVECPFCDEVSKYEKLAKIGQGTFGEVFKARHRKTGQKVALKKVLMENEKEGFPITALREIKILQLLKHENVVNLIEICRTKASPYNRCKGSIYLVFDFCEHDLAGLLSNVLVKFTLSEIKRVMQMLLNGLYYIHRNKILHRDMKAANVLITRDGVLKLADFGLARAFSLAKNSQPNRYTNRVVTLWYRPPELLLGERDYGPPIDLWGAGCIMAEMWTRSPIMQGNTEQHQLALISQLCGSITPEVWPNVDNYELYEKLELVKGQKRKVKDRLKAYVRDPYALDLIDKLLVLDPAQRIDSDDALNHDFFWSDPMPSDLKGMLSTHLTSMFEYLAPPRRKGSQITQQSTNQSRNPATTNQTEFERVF
Assay: radiometric filter-binding kinase assay, Kinase HotSpot
Settings: compound 0.5 µM; ATP 10 µM
Use satisfied when the recorded residual activity is no lower than 90%; use not satisfied when it is lower.

Answered cases to consult:
compound=Cc1ccc(NC2=CC(=O)c3sc(C)nc3C2=O)cc1 experimental_system="CDK9 CCNT1 (human) (UniProt P50750+O60563)" category=satisfied
compound=c1ccc(-c2n[nH]c3c2oc2ccccc23)cc1 experimental_system="CDK9 CCNT1 (human) (UniProt P50750+O60563)" category="not satisfied"
compound=Nc1ncnc2c1c(-c1ccc(Oc3ccccc3)cc1)cn2C1CCCC1 experimental_system="CDK9 CCNT1 (human) (UniProt P50750+O60563)" category=satisfied
compound=Nc1cccc(-c2cc3c(Oc4cccc(O)c4)ncnc3[nH]2)c1 experimental_system="CDK9 CCNT1 (human) (UniProt P50750+O60563)" category="not satisfied"
compound="CO[C@H]1CC2CC[C@@H](C)[C@@](O)(O2)C(=O)C(=O)N2CCCC[C@H]2C(=O)OC([C@H](C)C[C@@H]2CC[C@@H](O)[C@H](OC)C2)CC(=O)[C@H](C)/C=C(\\C)[C@@H](O)[C@@H](OC)C(=O)[C@H](C)C[C@H](C)/C=C/C=C/C=C/1C (stereo partly specified)" experimental_system="CDK9 CCNT1 (human) (UniProt P50750+O60563)" category="not satisfied"
compound=CCOC(=O)c1c(C)[nH]c(/C=C2\C(=O)Nc3ccccc32)c1C experimental_system="CDK9 CCNT1 (human) (UniProt P50750+O60563)" category=satisfied
compound=Oc1cccc(-c2nc(N3CCOCC3)c3oc4ncccc4c3n2)c1 experimental_system="CDK9 CCNT1 (human) (UniProt P50750+O60563)" category=satisfied
compound=N#CC(C#N)=C(N)/C(C#N)=C/c1ccc(O)cc1 experimental_system="CDK9 CCNT1 (human) (UniProt P50750+O60563)" category="not satisfied"

Evaluate CNc1cc2c(Nc3cccc(Br)c3)ncnc2cn1 : residual activity at minimum 90%?
satisfied
